These entries and their values trace back to paper PMC11125197.

system: human BBB-on-a-chip (hBMEC, HBVP, NHA); test: in vitro; conditions: human
measure: Css,blood (steady state concentration of blood channel)
# output: numeric value plus its unit

Solved cases (2 shown):
INSERT INTO assay_data (compound, result) VALUES
  ('NC(=O)N1c2ccccc2C=Cc2ccccc21 [Carbamazepine, carbamazepine]', '112.88 ng/mL'),
  ('CN(C)C(=O)C(CCN1CCC(O)(c2ccc(Cl)cc2)CC1)(c1ccccc1)c1ccccc1 [Loperamide, loperamide]', '684.09 ng/mL');

What Css,blood (steady state concentration of blood channel) value was documented for this compound, Cn1c(=O)c2c(ncn2C)n(C)c1=O ?
114.47 ng/mL

Please give the result for CCc1nn(CCCN2CCN(c3cccc(Cl)c3)CC2)c(=O)n1CCOc1ccccc1 too.
161.89 ng/mL

What about this compound? CC[C@]1(O)C[C@H]2CN(CCc3c([nH]c4ccccc34)[C@@](C(=O)OC)(c3cc4c(cc3OC)N(C=O)[C@H]3[C@@](O)(C(=O)OC)[C@H](OC(C)=O)[C@]5(CC)C=CCN6CC[C@]43[C@@H]65)C2)C1
626.20 ng/mL

---

test system: human BBB-on-a-chip (hBMEC, HBVP, NHA); experiment: in vitro; settings: human
Here the recorded Cplateau,brain (concentration at plateau time of brain channel) is given for each entry.
Numbers only here, please. The scale is ng/mL.

INSERT INTO assay_data (compound, study_target, unit_tag, numeric_result) VALUES
  ('CCc1nn(CCCN2CCN(c3cccc(Cl)c3)CC2)c(=O)n1CCOc1ccccc1', 'human BBB-on-a-chip (hBMEC, HBVP, NHA)', 'ng/mL', 13.8908),
  ('NC(=O)N1c2ccccc2C=Cc2ccccc21 [Carbamazepine, carbamazepine]', 'human BBB-on-a-chip (hBMEC, HBVP, NHA)', 'ng/mL', 28.6749),
  ('Cn1c(=O)c2c(ncn2C)n(C)c1=O', 'human BBB-on-a-chip (hBMEC, HBVP, NHA)', 'ng/mL', 44.8098);

Pending compound:
Which Cplateau,brain (concentration at plateau time of brain channel) value is on record for CN(C)C(=O)C(CCN1CCC(O)(c2ccc(Cl)cc2)CC1)(c1ccccc1)c1ccccc1 [Loperamide, loperamide] ?
33.9736

---

test: BBB-on-a-chip permeability, apical to basolateral (blood to brain channel), LC-MS/MS; settings: human
measure: Kp at 1 μM

INSERT INTO assay_data (compound, result) VALUES
  ('NC(=O)N1c2ccccc2C=Cc2ccccc21 [Carbamazepine, carbamazepine]', 0.282);

Which Kp at 1 μM is listed for CCc1nn(CCCN2CCN(c3cccc(Cl)c3)CC2)c(=O)n1CCOc1ccccc1 ?
0.0953

---

test system: human BBB-on-a-chip (hBMEC, HBVP, NHA); experiment: in vitro; conditions: human
Below is a list of entries, each paired with its recorded Css,brain (steady state concentration of brain channel) value.
# output: bare number, implied unit µg/mL

Worked cases, answers included:
INSERT INTO assay_data (molecule, numeric_result) VALUES
  ('NC(=O)N1c2ccccc2C=Cc2ccccc21 [Carbamazepine, carbamazepine]', 0.03186),
  ('Cn1c(=O)c2c(ncn2C)n(C)c1=O', 0.04979),
  ('CCc1nn(CCCN2CCN(c3cccc(Cl)c3)CC2)c(=O)n1CCOc1ccccc1', 0.01543);

Turning to the following molecule.
Which Css,brain (steady state concentration of brain channel) is listed for CN(C)C(=O)C(CCN1CCC(O)(c2ccc(Cl)cc2)CC1)(c1ccccc1)c1ccccc1 [Loperamide, loperamide] ?
0.03775
